Each recorded value in this set is attributed to patent US20220265629A1.

Assay: HFrEF study Part 1 (SAD Cohorts 1 and 2): plasma pharmacokinetics
Type: in vivo, human
Conditions: human, plasma, oral; SAD Cohort 1, Split dose 450 mg (n = 1); read-out: t½ (converted)
Assay metric: half-life (h)
Answer format: numeric, h implied, no suffix.

Exercise: Item under review: Cn1cc(S(=O)(=O)[C@@](C)(F)C2CCN(C(=O)Nc3ccon3)CC2)c(C(F)F)n1 . Reported half-life?
Solution: 30.6

----------
Assay: Single ascending oral dose study in healthy volunteers: plasma pharmacokinetics
Type: in vivo, human
Conditions: human, plasma, oral, 10 mg; read-out: Cmax, Median
Source text: This example describes the first-in-human study of Compound I. Based on its mechanism of action, Compound I may offer a targeted therapy for patients with DCM caused by genetic or nongenetic mechanisms. […] The concentrations of Compound I in human plasma and urine were quantitated by high performance liquid chromatography with tandem mass spectrometric detection (LC MS/MS) (Biological sample analysis study report Alturas AD17-726). […]
Assay metric: Cmax
The reply must contain the numeric value and, after it, the unit.

Exercise: Could you tell me which Cmax is on file for Cn1cc(S(=O)(=O)[C@@](C)(F)C2CCN(C(=O)Nc3ccon3)CC2)c(C(F)F)n1 [Compound I] ?
Solution: 146 ng/mL

----------
Test: Food effect cross-over study, 200 mg (25 mg tablets), healthy volunteers: plasma pharmacokinetics
Assay type: in vivo, human
Settings: human, plasma, oral, 72 hours postdose, Fed, read-out: Plasma concentration, Median
Assay metric: concentration at 72 h (ng/mL)
Supply the numeric figure in ng/mL, leaving out any unit text.

Exercise: concentration at 72 h lookup needed for Cn1cc(S(=O)(=O)[C@@](C)(F)C2CCN(C(=O)Nc3ccon3)CC2)c(C(F)F)n1 [Compound I] , thanks.
Solution: 143

----------
Test: Single ascending oral dose study in healthy volunteers: plasma pharmacokinetics
Assay type: in vivo, human
Settings: human, plasma, oral, 350 mg, 24 Hours Postdose; 350 mg; read-out: Plasma concentration, Geometric Mean
Assay metric: concentration at 24 h (ng/mL)
Express the result in ng/mL but write the number alone.

Exercise: Item Cn1cc(S(=O)(=O)[C@@](C)(F)C2CCN(C(=O)Nc3ccon3)CC2)c(C(F)F)n1 has what recorded concentration at 24 h?
Solution: 1280

----------
Assay: HFrEF study Part 1 (SAD Cohorts 1 and 2): plasma pharmacokinetics
Format: in vivo, human
Details: human, plasma, oral, 525 mg, SAD Cohort 1, 525 mg (n = 2)
Assay metric: Tmax (h)
Use h as the unit, but write only the number.

Exercise: Name the reported Tmax value associated with the molecule Cn1cc(S(=O)(=O)[C@@](C)(F)C2CCN(C(=O)Nc3ccon3)CC2)c(C(F)F)n1
Solution: 5.74

----------
Assay: Single ascending oral dose study in healthy volunteers: plasma pharmacokinetics
Type: in vivo, human
Conditions: human, plasma, oral, 50 mg; read-out: AUC0-24, Median
Description: This example describes the first-in-human study of Compound I. Based on its mechanism of action, Compound I may offer a targeted therapy for patients with DCM caused by genetic or nongenetic mechanisms. […] The concentrations of Compound I in human plasma and urine were quantitated by high performance liquid chromatography with tandem mass spectrometric detection (LC MS/MS) (Biological sample analysis study report Alturas AD17-726). […]
Assay metric: AUC(0-t) (ng·h/mL)
Return type: number; implicit unit ng·h/mL.

Exercise: May I ask what AUC(0-t) has been recorded for Cn1cc(S(=O)(=O)[C@@](C)(F)C2CCN(C(=O)Nc3ccon3)CC2)c(C(F)F)n1 ?
Solution: 6730
